- TARGET OR SYSTEM: T1, hVISTA-Fc (R&D systems. Cat. No. 7126-B7) (human, UniProt Q9H7M9 33-194)
- T1 construct: Bought antigen; also called human VISTA-Fc; VISTA-FC Human
- T1 sequence: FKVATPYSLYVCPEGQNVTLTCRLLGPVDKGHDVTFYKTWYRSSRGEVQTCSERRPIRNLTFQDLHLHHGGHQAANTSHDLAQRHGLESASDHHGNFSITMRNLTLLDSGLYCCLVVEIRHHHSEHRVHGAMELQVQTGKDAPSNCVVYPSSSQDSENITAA
- METHOD NOTES: Octet (BLI), antibody as ligand on biosensor, VISTA-Fc as analyte
MEASURED PROPERTY: pKd
The read-out pKd is expressed as -log10 of concentration in moles per litre.

1. Anti VISTA_V3_1 (IgG form) (antibody, V domains shown) VH: QMQLVQSGAEVKKPGSSVKVSCKASGGSSSNYAISWVRQAPGQGLEWMGGIIPIFGTTSYAQKFQGRVTITADGSMSTAYMELSSLRSEDTAVYYCAKGAIEPWPFYFDNWGQGTLVTVSS VL: QLVLTQPRSVSGSPGQSVTISCTGTNSDVGAYNYLSWYQQLPGRAPKVIIYDVNKRPSGVPDRFSGSRSGKTASLTISGLQAEDEADYYCAAWDDSLYGLVFGGGTKLTVLG    8.54
2. PMC-309.3.3 (antibody, V domains shown) VH: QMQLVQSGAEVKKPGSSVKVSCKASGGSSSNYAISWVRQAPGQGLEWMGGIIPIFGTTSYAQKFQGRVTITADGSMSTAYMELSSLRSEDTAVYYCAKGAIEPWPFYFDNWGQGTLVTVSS VL: QLVLTQPRSVSGSPGQSVTISCTGTNSDVGAYNYLSWYQQLPGRAPKVIIYDVNKRPSGVPDRFSGSRSGKTASLTISGLQAEDEADYYCAAWDDNLYGLVFGGGTKLTVLG    9.29

Would you mind telling me what pKd value was observed for PMC-309.3.4w (antibody, V domains shown, Heavy chain G-H (framework substituted), wt light chain) VH: QVQLVQSGAEVKKPGSSVKVSCKASGGSSSNYAISWVRQAPGQGLEWMGGIIPIFGTTSYAQKFQGRVTITADKSTSTAYMELSSLRSEDTAVYYCAKGAIEPWPFYFDNWGQGTLVTVSS VL: QLVLTQPRSVSGSPGQSVTISCTGTNSDVGAYNYLSWYQQLPGRAPKVIIYDVNKRPSGVPDRFSGSRSGKTASLTISGLQAEDEADYYCAAWDDNLYGLVFGGGTKLTVLG ? 9.30
